Just for reference, the Human Domainome abundance scans (Beltran et al. 2025) is where these values come from.

B1: Chromodomain-helicase-DNA-binding protein 7, residues 2564 to 2605; numbered along this chain, Q9P2D1 (parent)
chain: DPDTRIPVINLEDGTRLVGEDAPKNKDLVEWLKLHPTYTVDM

variants of: B1; assay: abundance fitness (aPCA) (normalised: wild type 0, dead -1); higher = more abundant; growth selection in yeast, the domain comes from the species named; details: Homo sapiens
List of abundance fitness values.

Observe how each entry below is paired with its result.
   alteration  result
0        T37W  -0.231
1         P2D  -0.301
2        E30C  -0.253

Q: Query: abundance fitness; subject: P2R
Ans: 0.161

Q: Another variant to check: K33A
Ans: 0.162

Q: Another variant to check: L32W
Ans: -0.574

Q: Another variant to check: L32I
Ans: -0.434

Q: Another variant to check: E20D
Ans: -0.059

Q: Another variant to check: V40A
Ans: 0.135

Q: Another variant to check: M42N
Ans: 0.025

Q: Another variant to check: N10R
Ans: -0.409

Q: Another variant to check: A22Y
Ans: -1.03
